The measured values listed here are drawn from paper PMC4068829.

# testedSystem: MATE1 (Homo sapiens)
# Sequence (Q96FL8 whole entry): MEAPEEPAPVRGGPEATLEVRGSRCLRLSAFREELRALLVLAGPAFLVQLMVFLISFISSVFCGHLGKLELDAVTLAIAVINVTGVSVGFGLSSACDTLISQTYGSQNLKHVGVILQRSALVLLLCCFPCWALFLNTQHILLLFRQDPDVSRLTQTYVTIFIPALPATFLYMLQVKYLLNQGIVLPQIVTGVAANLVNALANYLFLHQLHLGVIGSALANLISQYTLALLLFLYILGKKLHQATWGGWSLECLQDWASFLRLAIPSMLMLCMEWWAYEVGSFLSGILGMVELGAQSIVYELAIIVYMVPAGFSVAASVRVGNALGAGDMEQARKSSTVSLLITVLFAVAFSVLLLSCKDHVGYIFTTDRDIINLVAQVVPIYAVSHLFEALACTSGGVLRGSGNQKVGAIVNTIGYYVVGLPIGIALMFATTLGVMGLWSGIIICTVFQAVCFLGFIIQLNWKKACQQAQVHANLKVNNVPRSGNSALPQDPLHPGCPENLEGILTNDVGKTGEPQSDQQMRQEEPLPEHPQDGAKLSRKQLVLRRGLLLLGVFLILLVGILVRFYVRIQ
# testDescription: 14C-metformin uptake in HEK293 cells stably expressing MATE1
readoutLabel: IC50 (nM)
Field: numeric (nM). Do not append units.

Q: Reported IC50 for "NC(N)=Nc1nc(CSCCC(N)=NS(N)(=O)=O)cs1" : what is it?
Result: 90

* * *

# testedSystem: MATE1 (Homo sapiens)
readoutLabel: IC50 (nM)
Field: numeric (nM). Do not append units.

Q: Reported IC50 for "NC(N)=Nc1nc(CSCCC(N)=NS(N)(=O)=O)cs1" : what is it?
Result: 160

* * *

# testedSystem: UniProt:Q96FL8
# testDescription: High throughput screen
readoutLabel: log10(IC50) (log10 of the value in µM)
Hey, these are logged values: log10 of IC50, µM being the unit before logging.

1) [H]/N=C(\N/C(=N/[H])NCCCCCCNC(=N)NC(=N)Nc1ccc(Cl)cc1)Nc1ccc(Cl)cc1	0.49
2) NC1=NCC2c3ccccc3Cc3ccccc3N12 (centres unmarked) [Epinastine]	-0.22

Q: API: value(readout= log10(IC50), system= UniProt:Q96FL8, query= "COc1cc2c3cc1Oc1cc(ccc1O)C[C@@H]1c4c(cc(OC)c(O)c4Oc4ccc(cc4)C[C@@H]3N(C)CC2)CC[N+]1(C)C" )
Result: 0.04

Q: Please give the result for CN1C2CCCC1CC(NC(=O)c1nn(C)c3ccccc13)C2 (centres unmarked) too.
Result: 1.00

Q: Please give the result for "CC[C@@]1(O)C(=O)OCc2c1cc1n(c2=O)Cc2cc3c(CN(C)C)c(O)ccc3nc2-1" too.
Result: 1.29

* * *

# testedSystem: MATE1 (Homo sapiens)
# testDescription: in vitro
# measurementParameters: HEK cells stably overexpressing MATE1, pH 7.4
readoutLabel: Km at […]

Q: API: value(readout= Km at […], system= MATE1 (Homo sapiens), query= "CN(C)c1ccc(/C=C/c2cc[n+](C)cc2)cc1" )
Result: 34 µM

* * *

# testedSystem: UniProt:Q96FL8
# testDescription: High throughput screen
# measurementParameters: human, HEK cells stably overexpressing MATE1, pH 7.4, probe ASP+ (5 µM)
readoutLabel: inhibition at 20 µM (%)
Field: numeric (%). Do not append units.

Q: Reported inhibition at 20 µM for CO[C@@H]1[C@@H](O[C@@H]2O[C@H](C)[C@@H](O[C@H]3C[C@@](C)(O)[C@@H](OC(=O)CC(C)C)[C@H](C)O3)[C@H](N(C)C)[C@H]2O)[C@@H](CC=O)C[C@@H](C)[C@@H](O)/C=C/C=C/C[C@@H](C)OC(=O)C[C@H]1O [Leucomycin] : what is it?
Result: 56

* * *

# testedSystem: MATE1 (Homo sapiens)
# testDescription: High throughput screen
readoutLabel: IC50 (µM)
Field: numeric (µM). Do not append units.

Examples from the recorded data:
1. CO[C@@H]1[C@@H](O[C@@H]2O[C@H](C)[C@@H](O[C@H]3C[C@@](C)(O)[C@@H](OC(=O)CC(C)C)[C@H](C)O3)[C@H](N(C)C)[C@H]2O)[C@@H](CC=O)C[C@@H](C)[C@@H](O)/C=C/C=C/C[C@@H](C)OC(=O)C[C@H]1O	16
2. CN1C[C@H](C(=O)N[C@]2(C)O[C@@]3(O)[C@@H]4CCCN4C(=O)[C@H](Cc4ccccc4)N3C2=O)C[C@@H]2c3cccc4[nH]cc(c34)C[C@H]21 [Dihydroergotamine]	8

Now consider the entry below.
Q: Reported IC50 for "C#C[C@]1(O)CC[C@H]2[C@@H]3CCc4cc(O)ccc4[C@H]3CC[C@@]21C" : what is it?
Result: 13.5
